Origin of values: ChEMBL document CHEMBL5034009

Assay: Half life in CD-1 mouse plasma at 10 mg/kg, po administered as single dose by LC-MS analysis
Format: ADME, organism-based
endpoint-label: half-life (h)
One number for each entry, in h.

Which value of half-life has been reported for CS(=O)(=O)Nc1ccc(CNC(=O)c2ccc(C(F)(F)F)cc2)c(Cl)c1 in the records?
5.2

====

Test: Metabolic stability in Sprague-Dawley rat liver microsomes assessed as intrinsic clearance at 10 uM preincubated with NADPH regenerating system for 5 mins followed by addition of microsome upto 60 mins by HPLC analysis
Format: ADME
Settings: read-out: CLH
endpoint-label: microsomal CLint at 10 µM (µL/min/mg)
Answers are plain numbers, in µL/min/mg.

> print(dat)
                               query.smiles  value.measured
1  CS(=O)(=O)Nc1ccc(CNC(=O)c2ccc(C(F)(F)C(F)(F)F)cc2)c(Cl)c1              14
2  CC(F)(F)c1ccc(C(=O)NCc2ccc(NS(C)(=O)=O)cc2Cl)cc1             9.6

// batch mode: one microsomal CLint at 10 µM value per listed entry
1. CS(=O)(=O)Nc1ccc(CNC(=O)c2ccc(C(F)(F)F)cc2)c(Cl)c1
2. CS(=O)(=O)Nc1ccc(CNC(=O)c2ccc(C3(O)COC3)cc2)c(Cl)c1
3. CS(=O)(=O)Nc1ccc(CNC(=O)c2ccc(N3CCCCC3)cc2)c(Cl)c1
4. CS(=O)(=O)Nc1ccc(CNC(=O)c2ccc(C3(C(F)(F)F)CC3)cc2)c(Cl)c1
5. CC(C)(O)c1ccc(C(=O)NCc2ccc(NS(C)(=O)=O)cc2Cl)cc1
6. CC(C)(C)c1ccc(C(=O)NCc2ccc(NS(=O)(=O)C3CC3)cc2Cl)cc1
7. CCOc1ccc(C(=O)NCc2ccc(NS(C)(=O)=O)cc2Cl)cc1

[9.6, 5.4, 20, 7.5, 1.5, 41, 12]

// batch mode: one microsomal CLint at 10 µM value per listed entry
1. CS(=O)(=O)Nc1ccc(CNC(=O)c2ccc(S(F)(F)(F)(F)F)cc2)c(Cl)c1
2. CS(=O)(=O)Nc1ccc(CNC(=O)c2ccc(N3CCOCC3)cc2)c(Cl)c1
3. CC(C)Oc1ccc(C(=O)NCc2ccc(NS(C)(=O)=O)cc2Cl)cc1
4. COC(C)(C)c1ccc(C(=O)NCc2ccc(NS(C)(=O)=O)cc2Cl)cc1

9.8
4.1
12
24

// batch mode: one microsomal CLint at 10 µM value per listed entry
1. CC(C)(C)c1ccc(C(=O)NCc2ccc(NS(C)(=O)=O)cc2Cl)cc1
2. CC(C)(C)c1ccc(C(=O)NCc2ccc(NS(C)(=O)=O)cc2F)cc1
3. CCS(=O)(=O)Nc1ccc(CNC(=O)c2ccc(C(C)(C)C)cc2)c(Cl)c1
4. CN(C)c1ccc(C(=O)NCc2ccc(NS(C)(=O)=O)cc2Cl)cc1
5. CC(C)S(=O)(=O)Nc1ccc(CNC(=O)c2ccc(C(C)(C)C)cc2)c(Cl)c1
6. CS(=O)(=O)Nc1ccc(CNC(=O)c2ccc(CC(F)(F)F)cc2)c(Cl)c1
7. CS(=O)(=O)Nc1ccc(CNC(=O)c2ccc(OC(F)(F)F)cc2)c(Cl)c1

[21, 47, 28, 25, 23, 22, 9.1]
